Target: pfDHOD (Plasmodium falciparum (isolate 3D7))
Assay: DHOD enzyme inhibition, colorimetric DCIP reduction or direct orotic acid assay
Measurement name: pIC50
Scale: negative log10 of molar concentration, which is what pIC50 denotes.

Note down pIC50 recorded for `Cc1cc(Nc2ccc(C(F)(F)F)cc2)n2nc(C(C)(F)F)nc2n1`
7.42

Note down pIC50 recorded for Cc1cc(Nc2ccc3c(c2)CCC3)n2ccnc2n1 [drawing 336]
6.89

Note down pIC50 recorded for Cc1cc(NC2Cc3ccc(F)cc3C2)n2ncnc2n1 (centres unmarked)
6.21

====

Overview of reported melting point across a group of compounds:

INSERT INTO results (compound, result) VALUES
  ('Cc1cc(NC2Cc3ccc(Br)cc3C2)n2ncnc2n1 (centres unmarked)', '164 °C'),
  ('Cc1cc(Nc2ccc3c(c2)CCC3)n2ccnc2n1', '255 to 257 °C'),
  ('Cc1cc(Nc2ccc(S(F)(F)(F)(F)F)cc2)n2nc(C(F)(F)F)nc2n1', '178 to 180 °C'),
  ('Cc1cc(Nc2ccc3c(c2)CCCC3)n2ccnc2n1', '264 to 266 °C'),
  ('Cc1cc(Nc2ccc(C(F)(F)F)c(F)c2)n2ccnc2n1', '302 to 304 °C'),
  ('Cc1cc(Nc2ccc(CC(F)(F)F)cc2)n2ncnc2n1', '204 °C');

Note down melting point recorded for `Cc1cc(Nc2ccc(C(F)(F)F)cc2)n2nc(C(F)(F)F)nc2n1`
124 to 126 °C

Note down melting point recorded for `Cc1cc(Nc2ccc(Cl)c(F)c2)n2ncnc2n1`
285 °C

====

Biological target: pfDHOD (Plasmodium falciparum (isolate 3D7))
Test: DHOD enzyme inhibition, colorimetric DCIP reduction or direct orotic acid assay
Measurement name: pIC50
Scale: negative log10 of molar concentration, which is what pIC50 denotes.

# count of solved cases: 3
INSERT INTO measurements (compound, tgt, measurement_name, quantitative_readout) VALUES
  ('Cc1cc(Nc2ccc(C(F)(F)F)c(C(F)(F)F)c2)n2ncnc2n1', 'pfDHOD (Plasmodium falciparum (isolate 3D7))', 'pIC50', 6.27),
  ('Cc1cc(Nc2ccc(SC(F)(F)F)cc2)n2ncnc2n1', 'pfDHOD (Plasmodium falciparum (isolate 3D7))', 'pIC50', 6.21),
  ('Cc1cc(NC2CCc3ccccc3C2)n2ncnc2n1 (centres unmarked)', 'pfDHOD (Plasmodium falciparum (isolate 3D7))', 'pIC50', 6.30);

Using pfDHOD (Plasmodium falciparum (isolate 3D7)) as the test system, report measured pIC50 of `Cc1cc(Nc2ccc(Cl)cc2)n2nc(C(F)(F)F)nc2n1` .
7.05

Using pfDHOD (Plasmodium falciparum (isolate 3D7)) as the test system, report measured pIC50 of Cc1cc(Nc2ccc3c(c2)CCCC3)n2ncnc2n1 [drawing 353] .
7.49

Using pfDHOD (Plasmodium falciparum (isolate 3D7)) as the test system, report measured pIC50 of `CCc1c(C)nc2ncnn2c1Nc1ccc(C(C)C)cc1` .
5.78

Using pfDHOD (Plasmodium falciparum (isolate 3D7)) as the test system, report measured pIC50 of `Cc1cc(Nc2ccc3c(c2)CCCC3)n2nc(C(F)(F)F)nc2n1` .
7.37

Using pfDHOD (Plasmodium falciparum (isolate 3D7)) as the test system, report measured pIC50 of `Cc1cc(Nc2ccc(C(F)(F)F)cc2)n2nc(C3CC3)nc2n1` .
6.85

Using pfDHOD (Plasmodium falciparum (isolate 3D7)) as the test system, report measured pIC50 of Cc1cc(Nc2ccc(CC(F)(F)F)cc2)n2ncnc2n1 [drawing 337] .
5.61

Using pfDHOD (Plasmodium falciparum (isolate 3D7)) as the test system, report measured pIC50 of `Brc1ccc(Nc2c3c(nc4ncnn24)CCCC3)cc1` .
5.67

Using pfDHOD (Plasmodium falciparum (isolate 3D7)) as the test system, report measured pIC50 of `Cc1cc(Nc2cc(F)c(C(F)(F)F)c(F)c2)n2nc(C(F)(F)F)nc2n1` .
7.66

====

Overview of reported IC50 across a group of molecules:
Biological target: pfDHOD (Plasmodium falciparum (isolate 3D7))
Assay: DHOD enzyme inhibition, colorimetric DCIP reduction or direct orotic acid assay
Write the number in nM without appending the unit.

# count of solved cases: 5
INSERT INTO measurements (molecule, measurement_name, value_unit, quantitative_readout) VALUES
  ('Cc1cc(NC2CCc3ccccc3C2)n2nc(C(F)(F)F)nc2n1 (centres unmarked)', 'IC50', 'nM', 1200),
  ('Cc1cc(NC2Cc3cc(Cl)c(Cl)cc3C2)n2ncnc2n1', 'IC50', 'nM', 1200),
  ('CCC(F)(F)c1nc2nc(C)cc(Nc3ccc(C(F)(F)F)cc3)n2n1', 'IC50', 'nM', 190),
  ('Cc1cc(Nc2cc(F)c(C(F)(F)F)c(F)c2)n2ncnc2n1', 'IC50', 'nM', 190),
  ('CC(C)c1ccc(Nc2c3c(nc4ncnn24)CCC3)cc1', 'IC50', 'nM', 250);

Note down IC50 recorded for `FC(F)(F)c1ccc(Nc2cc(C(F)(F)F)nc3ncnn23)cc1`
1700

Note down IC50 recorded for Cc1cc(Nc2ccc(C(F)(F)F)c(F)c2)n2ccnc2n1 [drawing 333]
140

Note down IC50 recorded for `Cc1cc(Nc2ccc(C(F)(F)F)cc2)n2ccnc2n1`
77

====

Target: pfDHOD (Plasmodium falciparum (isolate 3D7), UniProt Q08210)
Sequence (Q08210 24-569 limits assumed): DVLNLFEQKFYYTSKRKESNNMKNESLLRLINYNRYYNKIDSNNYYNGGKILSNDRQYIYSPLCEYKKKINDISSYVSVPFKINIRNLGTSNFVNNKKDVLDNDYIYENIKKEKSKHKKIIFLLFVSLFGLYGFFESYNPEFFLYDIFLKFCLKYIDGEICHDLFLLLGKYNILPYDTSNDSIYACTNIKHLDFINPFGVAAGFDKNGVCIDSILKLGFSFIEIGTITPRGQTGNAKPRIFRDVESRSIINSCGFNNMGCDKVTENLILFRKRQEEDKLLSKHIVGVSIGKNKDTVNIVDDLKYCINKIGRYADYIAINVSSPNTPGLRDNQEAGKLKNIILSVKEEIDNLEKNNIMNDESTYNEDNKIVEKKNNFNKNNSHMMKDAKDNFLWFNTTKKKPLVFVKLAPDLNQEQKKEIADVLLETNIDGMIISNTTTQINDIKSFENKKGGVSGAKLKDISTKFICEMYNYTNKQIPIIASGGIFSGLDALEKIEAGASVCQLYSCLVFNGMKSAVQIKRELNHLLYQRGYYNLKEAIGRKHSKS
Assay: DHOD enzyme inhibition, colorimetric DCIP reduction or direct orotic acid assay
Overview of reported pIC50 across a group of compounds:
Scale: negative log10 of molar concentration, which is what pIC50 denotes.

# count of solved cases: 6
INSERT INTO measurements (compound, quantitative_readout) VALUES
  ('Cc1cc(Nc2ccc(C(F)(F)F)cc2)n2nc(C(C)C)nc2n1', 6.96),
  ('Cc1cc(Nc2ccc(S(F)(F)(F)(F)F)cc2)n2ncnc2n1', 6.80),
  ('Cc1cc(Nc2ccc(S(F)(F)(F)(F)F)cc2)n2nc(C(F)(F)F)nc2n1 [drawing 344]', 6.89),
  ('Cc1cc(Nc2ccc(Cl)c(F)c2)n2ncnc2n1 [drawing 338]', 6.29),
  ('Cc1cc(Nc2ccc(S(F)(F)(F)(F)F)cc2)n2nc(C)nc2n1', 6.29),
  ('Cc1cc(Nc2ccc3sccc3c2)n2ncnc2n1', 7.05);

Note down pIC50 recorded for `Cc1cc(Nc2ccc(Cl)cc2)n2nc(C(C)(F)F)nc2n1`
7.55

Note down pIC50 recorded for `Cc1cc(Nc2ccc(Cl)c(F)c2)n2nc(C(F)(F)F)nc2n1`
6.28

====

Target: pfDHOD (Plasmodium falciparum (isolate 3D7))
Experiment: DHOD enzyme inhibition, colorimetric DCIP reduction or direct orotic acid assay
pIC50: −log10 of the molar value.
Kindly return satisfied if reported pIC50 is no lower than 7; return not satisfied if it is lower.

Previously resolved entries follow.
INSERT INTO assay_data (compound, assigned_category) VALUES
  ('COc1cc2c(cc1OC)CC(Nc1cc(C)nc3ncnn13)C2', 'not satisfied'),
  ('Cc1cc(Nc2ccc(C(F)(F)F)cc2)n2nc(C(F)(F)F)nc2n1 [drawing 329]', 'satisfied'),
  ('Cc1cc(NC2Cc3cc(F)c(F)cc3C2)n2ncnc2n1', 'not satisfied');

Tell me whether pIC50 is at least 7 here: `Cc1cc(Nc2ccc(F)cc2)n2nc(C(F)(F)F)nc2n1`
not satisfied

Tell me whether pIC50 is at least 7 here: `Cc1cc(Nc2cc(F)c(C(F)(F)F)c(F)c2)n2nc(C(C)(F)F)nc2n1`
satisfied

Tell me whether pIC50 is at least 7 here: `Cc1cc(Nc2ccc(C(C)(C)C)c(F)c2)n2ncnc2n1`
satisfied

Tell me whether pIC50 is at least 7 here: `Cc1cc(Nc2ccc(C(F)(F)F)c(F)c2)n2nc(C(C)(F)F)nc2n1`
satisfied

====

Biological target: pfDHOD (Plasmodium falciparum (isolate 3D7), UniProt Q08210)
Assay: DHOD enzyme inhibition, colorimetric DCIP reduction or direct orotic acid assay
pIC50: −log10 of the molar value.
Kindly return True if reported pIC50 is no lower than 7; return False if it is lower.

INSERT INTO assay_data (compound, assigned_category) VALUES
  ('Cc1cc(NC2CCc3cc(Cl)ccc3C2)n2ncnc2n1 (centres unmarked)', 'False'),
  ('Cc1cc(NC2CCc3cc(F)ccc3C2)n2ncnc2n1 (centres unmarked)', 'False'),
  ('COc1nc2nc(C)cc(Nc3ccc(S(F)(F)(F)(F)F)cc3)n2n1', 'True'),
  ('Cc1cc(NC2Cc3ccccc3C2)n2ncnc2n1', 'False'),
  ('Cc1cc(C)cc(Nc2cc(C)nc3nc(C(F)(F)F)nn23)c1', 'False');

Let's switch to this compound now.
Tell me whether pIC50 is at least 7 here: Cc1cc(NC2Cc3ccc(Br)cc3C2)n2ncnc2n1 (centres unmarked) [drawing 343]
False
